Molecular target: MOR (Homo sapiens)
Sequence (P35372 whole entry): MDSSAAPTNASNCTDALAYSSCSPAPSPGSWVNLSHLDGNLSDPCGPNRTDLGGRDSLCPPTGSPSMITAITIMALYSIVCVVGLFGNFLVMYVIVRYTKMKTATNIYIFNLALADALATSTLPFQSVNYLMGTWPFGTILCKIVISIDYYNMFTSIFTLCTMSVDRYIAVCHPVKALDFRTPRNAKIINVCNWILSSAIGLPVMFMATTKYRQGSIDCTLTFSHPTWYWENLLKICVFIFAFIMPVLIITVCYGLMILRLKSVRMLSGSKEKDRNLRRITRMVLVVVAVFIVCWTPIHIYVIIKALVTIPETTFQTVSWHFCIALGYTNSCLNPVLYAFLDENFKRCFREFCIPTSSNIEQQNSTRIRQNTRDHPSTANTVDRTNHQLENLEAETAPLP
Assay: Opioid secondary binding, MOR (Tables 4, 5, 8)
Details: Opioid secondary binding activity for Formula 10 analogs; read-out: MOR, Ki
recorded.metric: pKi
Scale note: pKi = -log10(concentration in M).

Examples from the recorded data:
Request: # get_value(readout= pKi, system= MOR (Homo sapiens)) for O=C(Nc1ccc(Br)c(C(F)(F)F)c1)[C@@H]1CC=C[C@@H]2CCN(CCc3ccccc3)C(=O)[C@@H]21 (racemic)
Response: 5.93

Request: Next entry: O=C(Nc1ccccc1)[C@@H]1CC=C[C@@H]2CCN(Cc3ccccc3)C(=O)[C@@H]21 (racemic)
Response: 5.59

Request: Next entry: O=C1[C@H]2[C@H](C=CC[C@H]2C(=O)N2CCN(c3ccccc3)CC2)CCN1Cc1ccccc1 (racemic)
Response: 5.62

New cases:
Request: # get_value(readout= pKi, system= MOR (Homo sapiens)) for COc1ccc(CN2CC[C@H]3C=CC[C@@H](C(=O)N4CCN(c5ccccc5)CC4)[C@H]3C2=O)cc1OC (racemic)
Response: 5.26
